TGT: full-length TcPINK1 (1–570) (Tribolium castaneum, UniProt D6WMX4)
Construct: Kinetics of phosphorylation of PINKtide and indicated variants by full-length TcPINK1 (1–570); made in house; host or cells: E. coli BL21 Codon+
Sequence (D6WMX4 whole entry): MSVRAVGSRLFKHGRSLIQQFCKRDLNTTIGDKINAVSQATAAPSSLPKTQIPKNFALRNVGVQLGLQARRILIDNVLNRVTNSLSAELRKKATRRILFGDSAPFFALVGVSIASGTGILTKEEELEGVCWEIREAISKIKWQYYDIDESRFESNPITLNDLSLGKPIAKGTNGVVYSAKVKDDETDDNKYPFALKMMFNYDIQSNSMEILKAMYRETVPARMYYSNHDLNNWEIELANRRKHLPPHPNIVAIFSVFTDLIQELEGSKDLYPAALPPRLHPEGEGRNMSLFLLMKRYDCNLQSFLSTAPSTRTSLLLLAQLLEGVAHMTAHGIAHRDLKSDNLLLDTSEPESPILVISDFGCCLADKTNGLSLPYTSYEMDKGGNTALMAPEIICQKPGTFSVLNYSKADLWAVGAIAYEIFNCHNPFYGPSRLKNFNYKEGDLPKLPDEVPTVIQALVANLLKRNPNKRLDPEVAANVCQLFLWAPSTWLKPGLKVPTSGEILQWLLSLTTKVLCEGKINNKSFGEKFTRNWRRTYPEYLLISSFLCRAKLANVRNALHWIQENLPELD
METHOD DESCRIPTION: Peptide substrate kinase assay: phosphorylation of PINKtide and variants, [γ-32P] ATP, P81 paper
Format: biochemical
APPLIED CONDITIONS: phosphorylation of the peptide substrate by full-length TcPINK1 (1–570); kinase 1 µM, 0.1 mM [γ-32P] ATP, 10 mM MgCl2, 50 mM Tris–HCl pH 7.5, 30 min, 30°C; nonlinear regression (GraphPad Prism); similar results in at least two experiments; n.d. = peptide phosphorylated poorly, kinetic values not determinable
So basically: is Km under 300 µM? Then rule met. Not under? Then rule not met.

>>> df
                                  substance  class_label
0  KKEIpYRRSPRRR [PINKtide variant at the −5 position]     rule met
1  KKWIYRRSPRRR [PINKtide variant at the −3 position]     rule met
2  KKWIERRSPRRR [PINKtide variant at the −3 position]     rule met
3  KKWIpSRRSPRRR [PINKtide variant at the −3 position]     rule met
4  KKWISRRSPRRR [PINKtide variant at the −3 position]     rule met

Turning now to a further record.
Exercise: Km strictly < 300 µM for this substance? KKWIKRRSPRRR [PINKtide variant at the −3 position]
Solution: rule met

Ref: paper PMC3352081
